- Tested Target: PR-3 (Homo sapiens, UniProt P24158)
- Sequence (P24158 28-248): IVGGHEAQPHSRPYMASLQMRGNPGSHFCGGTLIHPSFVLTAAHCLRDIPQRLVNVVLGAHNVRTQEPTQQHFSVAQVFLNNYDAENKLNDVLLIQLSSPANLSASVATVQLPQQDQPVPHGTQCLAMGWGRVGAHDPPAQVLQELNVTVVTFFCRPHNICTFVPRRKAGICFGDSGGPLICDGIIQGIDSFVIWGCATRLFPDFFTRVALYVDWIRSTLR
- Test Details: Inhibition of PR-3, summary statement of the assays shown below
- Format: biochemical

Molecule	inhibition of PR-3
O=c1oc(Cl)c(Cl)c2ccccc12 [DCI, 3,4 dichloroisocoumarin]	inhibited
CC(C)C(NC(=O)[C@@H]1CCCN1C(=O)[C@H](C)NC(=O)OC(C)(C)C)P(=O)(Oc1ccccc1)Oc1ccccc1 (stereo partly drawn) [APV, Boc-Ala-Pro-Val-p(OPh)2]	inhibited

----------
- Tested Target: recombinant PR-3 (rPR-3) (Homo sapiens)
- Test Details: Residual recombinant PR-3 activity with Boc-Ala-ONp substrate
Give IC50 for every item shown.

Value of IC50 reported for the compound CC(C)C(NC(=O)[C@@H]1CCCN1C(=O)[C@H](C)NC(=O)OC(C)(C)C)P(=O)(Oc1ccccc1)Oc1ccccc1 (some centres unmarked) is ~10 µM

# IC50 (compound: CC(C)C(NC(=O)[C@@H]1CCCN1C(=O)[C@@H](NC(=O)OC(C)(C)C)C(C)C)P(=O)(Oc1ccccc1)Oc1ccccc1 (some centres unmarked) ) is ~0.4 µM

----------
- Tested Target: PR-3 (Homo sapiens)
- Test Details: Inhibition of PR-3, summary statement of the assays shown below
- Format: biochemical
Measurement Name: inhibition of PR-3

> print(dat)
                                   compound  experimental.result
1  CC(C)C(NC(=O)[C@@H]1CCCN1C(=O)[C@@H](NC(=O)OC(C)(C)C)C(C)C)P(=O)(Oc1ccccc1)Oc1ccccc1 (stereo partly drawn)            inhibited
2  CC(C)C[C@H](NC(=O)N[C@H](C(=O)N[C@@H](CCC(N)=O)C(=O)N[C@@H](C)C=O)[C@@H]1CCNC(=N)N1)C(=O)O            inhibited
